- Experimental Target: Serine/threonine-protein kinase Nek6 (Homo sapiens) (UniProt Q9HC98)
- Sequence (Q9HC98 whole entry): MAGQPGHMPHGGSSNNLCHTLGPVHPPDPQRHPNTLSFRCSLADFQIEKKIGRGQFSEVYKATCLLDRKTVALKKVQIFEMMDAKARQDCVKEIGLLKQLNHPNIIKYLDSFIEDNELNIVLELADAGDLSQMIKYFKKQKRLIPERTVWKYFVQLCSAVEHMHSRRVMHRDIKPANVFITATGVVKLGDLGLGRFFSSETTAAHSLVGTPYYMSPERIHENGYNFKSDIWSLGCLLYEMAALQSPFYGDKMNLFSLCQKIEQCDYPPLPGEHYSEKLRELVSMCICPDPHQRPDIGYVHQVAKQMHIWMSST
- Condition Set: at 1 µM
- Description: Millipore: Percentage of residual kinase activity of NEK6 at 1uM relative to control. Control inhibitor: Phosphoric acid* at 0.3uM. Buffer: 8 mM MOPS pH 7.0, 0.2 mM EDTA
Measured residual activity by item
Metric Name: residual activity (%)

{"Cpd Smiles": "O=C1c2ccccc2-[n+]2ccc3c([nH]c4ccccc43)c21", "Measurement Units": "%", "Test Result": 109}
{"Cpd Smiles": "COc1cc2ncnc(N3CCN(C(=O)Nc4ccc(Oc5ccccc5)cc4)CC3)c2cc1OC", "Measurement Units": "%", "Test Result": 91}
{"Cpd Smiles": "Oc1c2ccccc2c2c3c(cccc13)N=N2", "Measurement Units": "%", "Test Result": 107}
{"Cpd Smiles": "Cc1cc(Nc2nc(-c3ccccc3)nc3ccccc23)n[nH]1", "Measurement Units": "%", "Test Result": 105}
{"Cpd Smiles": "COc1ccc(CNc2nc(N(CCO)CCO)nc3c2ncn3C(C)C)cc1", "Measurement Units": "%", "Test Result": 107}
{"Cpd Smiles": "CO[C@H]1C[C@@H]2CC[C@@H](C)[C@@](O)(O2)C(=O)C(=O)N2CCCC[C@H]2C(=O)O[C@H]([C@H](C)C[C@@H]2CC[C@@H](O)[C@H](OC)C2)CC(=O)[C@H](C)/C=C(\\C)[C@@H](O)[C@@H](OC)C(=O)[C@H](C)C[C@H](C)/C=C/C=C/C=C/1C", "Measurement Units": "%", "Test Result": 97}
{"Cpd Smiles": "O=C1NC(=O)c2cc(Nc3ccc(F)cc3)c(Nc3ccc(F)cc3)cc21", "Measurement Units": "%", "Test Result": 112}
{"Cpd Smiles": "O=C(Nc1cccc(Nc2cc(Nc3cccc(C(F)(F)F)c3)ncn2)c1)C1CC1", "Measurement Units": "%", "Test Result": 99}
{"Cpd Smiles": "Cc1cncc2cccc(S(=O)(=O)N3CCCN(C(=O)CN)C[C@H]3C)c12", "Measurement Units": "%", "Test Result": 88}
